Source: ChEMBL document CHEMBL3991601

Activity calls are given as the source filed them.
Lab note: Kd readings collected with Rho-associated protein kinase 1 (Homo sapiens) for the following molecules.
Sequence (Q13464 whole entry): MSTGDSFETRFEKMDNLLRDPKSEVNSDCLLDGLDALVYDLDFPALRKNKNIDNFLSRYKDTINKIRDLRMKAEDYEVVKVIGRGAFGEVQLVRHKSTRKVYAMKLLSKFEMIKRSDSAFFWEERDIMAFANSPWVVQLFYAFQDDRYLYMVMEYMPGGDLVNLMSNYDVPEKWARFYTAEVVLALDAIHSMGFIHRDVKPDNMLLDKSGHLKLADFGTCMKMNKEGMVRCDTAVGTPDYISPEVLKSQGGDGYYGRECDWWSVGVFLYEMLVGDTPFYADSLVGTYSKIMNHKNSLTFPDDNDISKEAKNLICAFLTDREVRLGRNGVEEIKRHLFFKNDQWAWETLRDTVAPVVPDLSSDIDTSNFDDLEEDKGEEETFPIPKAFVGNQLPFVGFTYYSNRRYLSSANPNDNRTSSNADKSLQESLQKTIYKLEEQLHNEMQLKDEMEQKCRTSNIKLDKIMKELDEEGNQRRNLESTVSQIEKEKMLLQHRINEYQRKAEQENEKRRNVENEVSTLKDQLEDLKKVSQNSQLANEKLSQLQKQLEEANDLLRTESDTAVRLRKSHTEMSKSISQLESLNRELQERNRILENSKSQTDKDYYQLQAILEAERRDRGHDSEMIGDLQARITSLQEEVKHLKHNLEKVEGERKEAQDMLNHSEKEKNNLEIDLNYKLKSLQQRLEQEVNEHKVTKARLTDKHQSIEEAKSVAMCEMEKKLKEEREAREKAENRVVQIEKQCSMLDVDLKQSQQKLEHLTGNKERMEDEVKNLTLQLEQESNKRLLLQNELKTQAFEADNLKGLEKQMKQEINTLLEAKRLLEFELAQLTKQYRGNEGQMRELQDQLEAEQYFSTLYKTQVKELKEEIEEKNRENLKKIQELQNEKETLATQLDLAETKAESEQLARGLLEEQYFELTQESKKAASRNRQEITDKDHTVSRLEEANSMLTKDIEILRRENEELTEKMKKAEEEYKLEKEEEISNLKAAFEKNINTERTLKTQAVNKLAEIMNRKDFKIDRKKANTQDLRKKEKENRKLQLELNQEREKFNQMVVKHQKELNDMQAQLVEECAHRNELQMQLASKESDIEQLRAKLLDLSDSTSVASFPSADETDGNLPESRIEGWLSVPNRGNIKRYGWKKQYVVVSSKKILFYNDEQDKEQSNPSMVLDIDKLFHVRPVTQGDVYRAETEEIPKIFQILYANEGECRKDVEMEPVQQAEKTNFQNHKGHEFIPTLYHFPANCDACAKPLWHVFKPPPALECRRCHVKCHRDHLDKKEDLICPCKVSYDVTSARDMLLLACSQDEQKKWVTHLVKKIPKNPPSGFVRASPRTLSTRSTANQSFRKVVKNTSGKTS

Parameter requested: Kd. Apply to each item below.
1. Cc1cc(Nc2nc(N[C@@H](C)c3ncc(F)cn3)ncc2Cl)n[nH]1
2. COc1cc2ncnc3c2cc1OCCCCCN(C)Cc1ccc(Br)cc1N3
3. FC(F)(F)c1ccc(CNc2ccc(Cc3c[nH]c4ncc(Cl)cc34)cn2)cn1

["> 30 µM (inactive)", "> 30 µM (inactive)", "> 30 µM (inactive)"]

---

Calls of active or inactive are those of the source.
Lab note: Kd readings collected with Mitogen-activated protein kinase 1 (Homo sapiens, UniProt P28482) for the following compounds.
Sequence (P28482 whole entry): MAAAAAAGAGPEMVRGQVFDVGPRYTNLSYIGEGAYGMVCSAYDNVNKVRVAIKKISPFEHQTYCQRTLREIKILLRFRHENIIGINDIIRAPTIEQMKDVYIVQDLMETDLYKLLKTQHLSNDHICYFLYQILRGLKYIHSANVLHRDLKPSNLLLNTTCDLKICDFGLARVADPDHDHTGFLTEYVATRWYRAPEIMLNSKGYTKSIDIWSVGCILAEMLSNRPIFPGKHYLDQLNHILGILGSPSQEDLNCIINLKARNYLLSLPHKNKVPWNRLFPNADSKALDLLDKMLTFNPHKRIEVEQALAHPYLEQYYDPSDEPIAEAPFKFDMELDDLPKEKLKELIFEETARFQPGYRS

Examples from the recorded data:
* O=C(Nc1ccc(OC(F)(F)F)cc1)c1sccc1NCc1ccnc2ccccc12 | > 30 µM (inactive)
* COc1ccc(-c2ccc3ncc4c(c3c2)n(-c2ccc(N3CCNCC3)c(C(F)(F)F)c2)c(=O)n4C)cn1 [BGT-226 FREE BASE] | > 30 µM (inactive)

Parameter requested: Kd. Apply to each item below.
1. O=C(NOC[C@H](O)CO)c1ccc(F)c(F)c1Nc1ccc(I)cc1F
2. Cc1c(NC(=O)OC[C@@H]2COCCN2)cn2ncnc(Nc3ccc4c(cnn4Cc4cccc(F)c4)c3)c12
3. COc1cccc(Nc2ncnn3ccc(CN4CC[C@@H](N)[C@H](O)C4)c23)c1

["> 30 µM (inactive)", "> 30 µM (inactive)", "> 30 µM (inactive)"]

Parameter requested: Kd. Apply to each item below.
1. C=CCn1c(=O)c2cnc(Nc3ccc(N4CCN(C)CC4)cc3)nc2n1-c1cccc(C(C)(C)O)n1
2. CC1(COc2ccc3c(c2)ncn3-c2ccc3cccc(N4CCC(N)CC4)c3n2)COC1
3. CCOc1ccn(-c2ccc(F)cc2)c(=O)c1C(=O)Nc1ccc(Oc2ccnc(N)c2Cl)c(F)c1

> 30 µM (inactive)
> 30 µM (inactive)
> 30 µM (inactive)
